tested on: NCI-H460; test: NCI tumour cell line growth inhibition, 48 h
The source made the active and inactive calls. Rule as the data show it: active = GI50 up to about 1.1 µM and inactive = higher.
Tick one outcome: active, inactive

Before answering, review these 6 worked examples.
- CCOC(=O)CCC(=O)C1c2cccc(O)c2C(=O)c2c(O)cc(C)cc21 (stereo unspecified): active
- CC1(C)S[C@@H]2[C@H](NC(=O)CCC[C@@H](N)C(=O)O)C(=O)N2[C@H]1C(=O)O: inactive
- C[C@]12CC[C@H](O)CC1=CC[C@@H]1C2CC[C@]2(C)C(=O)NC(=O)CC12 (stereo partly specified): inactive
- c1cc(Sc2nc(Sc3ccncc3)nc(Sc3ccncc3)n2)ccn1: inactive
- O=C1CC(=O)NC(NNS(=O)(=O)c2ccccc2)=N1: inactive
- O=C1OC(Cc2ccccc2)(N2CCCC2=O)C1c1ccccc1 (stereo unspecified): inactive

We next turn to a different molecule, shown below.
In this assay, the call recorded for Cc1cnc2nc(-c3ccc(F)cc3)cc(O)c2c1 was what?
inactive

* * *

test system: OVCAR-5; assay: NCI tumour cell line growth inhibition, 48 h
The source made the active and inactive calls. Cut-off read from the data, not from the text of the source: active = GI50 up to about 1.1 µM and inactive = higher.
Would you mind telling me the reported GI50 of each entry?

For orientation, consider the following solved cases.
- CC1(C)C=C(N2CCN(C3=CC(C)(C)NC(C)(C)C3)CC2)CC(C)(C)N1: > 100 µM (inactive)
- CSc1nc(-c2cc3c(c(SC)n2)CCCCC3)cc2c1CCCCC2: > 100 µM (inactive)
- COc1ccc2c(CCNS(=O)(=O)c3ccccc3)c(C(C)=O)[nH]c2c1: > 88.9 µM (inactive)
- COC(=O)[C@@H](N1C(=O)c2ccccc2C1=O)C1(C)CC(Cl)=NO1 (stereo partly specified): > 100 µM (inactive)
- COc1ccc2c3c1O[C@H]1C(O)CCC4(O)[C@@H](C2)NCC[C@]314 (stereo partly specified): > 100 µM (inactive)

I would be grateful if you could provide GI50 for each of the following entries.
1. Cc1ccc2c(=O)c(C(=O)NNC(=S)NC3CCCCC3)c[nH]c2n1
2. Cc1nc(-n2nc(-c3ccccc3)cc2-c2ccccc2)sc1C(=O)/C=C/c1ccc(Cl)c(Cl)c1
3. CC1=CC=CC(C)(C)CC1(O[Si](C)(C)C)C(F)(F)F (stereo unspecified)

1. > 100 µM (inactive)
2. 18.8 µM (inactive)
3. > 100 µM (inactive)

I would be grateful if you could provide GI50 for each of the following entries.
1. O=C(N/C(=C\c1ccccc1)c1nc2ccccc2c(=O)o1)c1ccccc1
2. C/C=C1/C(=Cc2[nH]c(C=c3[nH]/c(=C/C4=NC(=O)C(CC)=C4C)c(C)c3CCC(=O)O)c(CCC(=O)O)c2C)NC(=O)C1C (stereo unspecified)
3. C=CCOc1ccc(C2c3c(n[nH]c3O)CC(O)(OCC)C2C(=O)OCC)cc1OC (stereo unspecified)
4. N#Cc1c(-c2ccccc2)cc(Nc2cccc(C(F)(F)F)c2)n2c1nc1ccccc12
5. CCC1(C)N=c2c(ncn2N=C(C)C)=C(C(N)=O)N1 (stereo unspecified)

> 88.9 µM (inactive)
8.49 µM (inactive)
> 100 µM (inactive)
2.68 µM (inactive)
> 100 µM (inactive)

I would be grateful if you could provide GI50 for each of the following entries.
1. O=C1NC(N2CCOCC2)=N/C1=C\c1ccccc1O
2. c1cc(Sc2nc(Sc3ccncc3)nc(Sc3ccncc3)n2)ccn1
3. N#C/C(C(=O)Nc1ccc(Cl)cc1)=C(/N)N1CCOCC1
4. COc1cc(/C=C2\[C@@H]3NC(Cc4c(OC)c(C)c(OC)c(OC)c43)C(=O)N2Cc2ccccc2)c(OC)c(C)c1OC
5. C=C(c1ccccc1)[C@@]1(O)CCCC[C@H]1NC(c1ccccc1)c1ccccc1
6. c1ccc2c(CN3CCN(Cc4c[nH]c5ccccc45)CC3)c[nH]c2c1
7. COc1ccccc1C1C2=C(COC2=O)Oc2cc3c(cc21)OCO3 (stereo unspecified)
8. O=C(O)C1[C@@H](C(=O)O)C1(Br)CBr (stereo partly specified)

1. > 100 µM (inactive)
2. > 100 µM (inactive)
3. > 100 µM (inactive)
4. 41.3 µM (inactive)
5. 13.6 µM (inactive)
6. 18.7 µM (inactive)
7. 11 µM (inactive)
8. > 100 µM (inactive)
